Target: T1, WER L59E (Arabidopsis, UniProt Q9SEI0 12-130, L59E)
T1 sequence: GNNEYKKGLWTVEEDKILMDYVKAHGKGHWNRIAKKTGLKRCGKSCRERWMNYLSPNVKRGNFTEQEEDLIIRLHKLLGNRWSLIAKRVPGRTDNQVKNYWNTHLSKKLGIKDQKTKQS
Test: ITC; ITC: 150 mM NaCl, 20 mM HEPES pH 7.5, 25 C, 400 uM protein into 20 uM DNA; EMSA: 150 mM NaCl, 20 mM Tris-HCl pH 8.0, on ice 1 h, 0.1 uM DNA, 6% native PAGE 0.5x TBE
Details: protein: recombinant; tags: 6xHis-SUMO removed by Ulp1; blunt
METRIC: Kd (nM)

1) GL2 promoter WER target DNA (dsDNA) DNA 1: AAATTCTCCAACCGCATTTTC DNA 2: GAAAATGCGGTTGGAGAATTT; 47.8
